# assayed_system: quisqualate type receptors
# assay_protocol: 3H-AMPA binding (displacement of 3H-AMPA from quisqualate type receptors, rat cerebral cortical membrane homogenate)
# condition_description: concentration causing 50% displacement of specific 3H-AMPA binding; Hill analysis; pH 7.1, 0° C., 30 min
quantity_kind: IC50 (µg/mL)
Output spec: scalar in µg/mL, unitless text.

Reference set, count: 2
smi=CC(=O)c1cc2c(cc1C#N)[nH]c(=O)c(=O)n2O quantity_kind=IC50 unit_symbol=µg/mL measured=0.09
smi=O=c1[nH]c2cc(C(F)(F)F)c(Cl)cc2n(O)c1=O quantity_kind=IC50 unit_symbol=µg/mL measured=0.37

Query string: Which value of IC50 has been reported for `N#Cc1cc2c(cc1C(F)(F)F)[nH]c(=O)c(=O)n2O` in the records?
Result string: 0.15

Query string: Which value of IC50 has been reported for `NS(=O)(=O)c1cc2c(cc1C(F)(F)F)[nH]c(=O)c(=O)n2O` in the records?
Result string: 0.14
